The reported numbers originate from patent US20250051338A1.

# Tested System: TYK2 (Homo sapiens, UniProt P29597)
# Sequence (P29597 whole entry): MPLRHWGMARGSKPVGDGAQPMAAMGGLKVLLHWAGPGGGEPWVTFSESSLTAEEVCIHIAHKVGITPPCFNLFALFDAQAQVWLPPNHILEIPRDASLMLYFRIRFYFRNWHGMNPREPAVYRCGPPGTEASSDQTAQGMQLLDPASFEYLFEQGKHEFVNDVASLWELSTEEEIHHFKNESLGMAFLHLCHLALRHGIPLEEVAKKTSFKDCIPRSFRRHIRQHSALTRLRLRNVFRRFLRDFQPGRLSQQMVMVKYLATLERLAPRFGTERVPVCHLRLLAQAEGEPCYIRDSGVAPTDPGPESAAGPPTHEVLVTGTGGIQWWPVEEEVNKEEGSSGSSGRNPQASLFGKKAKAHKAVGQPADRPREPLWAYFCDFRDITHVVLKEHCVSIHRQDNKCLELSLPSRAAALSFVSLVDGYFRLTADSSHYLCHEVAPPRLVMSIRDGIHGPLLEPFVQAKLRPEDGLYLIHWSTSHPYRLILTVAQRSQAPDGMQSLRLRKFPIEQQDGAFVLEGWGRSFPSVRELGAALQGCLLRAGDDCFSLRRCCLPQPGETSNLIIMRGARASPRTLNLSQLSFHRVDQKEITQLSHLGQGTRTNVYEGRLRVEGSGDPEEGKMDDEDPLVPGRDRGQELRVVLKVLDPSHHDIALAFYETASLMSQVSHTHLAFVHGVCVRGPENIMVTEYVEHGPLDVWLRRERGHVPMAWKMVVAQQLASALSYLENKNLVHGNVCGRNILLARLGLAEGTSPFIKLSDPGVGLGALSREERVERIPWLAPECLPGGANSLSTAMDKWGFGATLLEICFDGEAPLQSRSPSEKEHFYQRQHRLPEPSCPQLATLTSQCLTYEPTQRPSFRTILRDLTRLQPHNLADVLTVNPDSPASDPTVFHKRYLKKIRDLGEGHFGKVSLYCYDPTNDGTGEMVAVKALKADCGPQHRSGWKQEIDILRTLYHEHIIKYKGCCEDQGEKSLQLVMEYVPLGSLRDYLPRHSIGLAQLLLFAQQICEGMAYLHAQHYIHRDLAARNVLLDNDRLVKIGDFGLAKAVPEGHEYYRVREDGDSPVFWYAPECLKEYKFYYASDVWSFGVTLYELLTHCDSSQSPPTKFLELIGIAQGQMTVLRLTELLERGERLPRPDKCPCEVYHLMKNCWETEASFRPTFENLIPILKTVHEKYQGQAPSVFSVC
# Assay Overview: TYK2 degradation MSD assay in EBV-B cells
# Assay type: cell-based
# Design: endogenous in cells; host or cells: EBV-B cells
# Assay Setup: 4 to 24 hours incubation, read-out: TYK2 MSD DC50 rating in EBV-B
# Description: Example 3. TYK2 Degradation MSD Assay in EBV-B, OCI-LY10, and Human PBMC Cells Degradation of TYK2 in cells was quantitatively measured using Meso Scale Discovery (MSD) technology. […] The assay plates were then incubated at room temperature for 1 hour, washed 3 times with 150 μl/well TBST buffer, and 150 μl/well MSD reading buffer (MSD, R92TC-2) were added. The plates were then analyzed by an MSD reader. […]
Attribute Measured: DC50

Recorded DC50, per entry:
Query block: Please state recorded DC50 (tested on TYK2 (Homo sapiens, UniProt P29597)) of CNc1cc(Nc2cccn(-c3ccc(C(=O)N4CCC5(CC4)CC(Cc4ccc6c(c4)n(C)c(=O)n6C4CCC(=O)NC4=O)C5)cn3)c2=O)nn2c(C(=O)N[C@@H]3C[C@@H]3F)cnc12 (some centres unmarked)
Result block: < 1 nM

Query block: Please state recorded DC50 (tested on TYK2 (Homo sapiens, UniProt P29597)) of CNc1cc(Nc2cccc(C3CCC(CN4CCN(c5ccc(-c6ccc7c(c6)n(C)c(=O)n7C6CCC(=O)NC6=O)cc5)CC4)CC3)c2OC)nn2c(C(=O)N[C@@H]3C[C@@H]3F)cnc12 (some centres unmarked)
Result block: > 100 nM

Query block: Please state recorded DC50 (tested on TYK2 (Homo sapiens, UniProt P29597)) of CNC1=CC(Nc2cccc(-c3ccc(CN4CCN(CC5CCN(C(=O)c6ccc(Cl)c(N7CCC(=O)NC7=O)c6)CC5)CC4)cn3)c2)=NC2C(C(=O)N[C@@H]3C[C@@H]3F)=CN=C12 (some centres unmarked)
Result block: > 100 nM

Query block: Please state recorded DC50 (tested on TYK2 (Homo sapiens, UniProt P29597)) of CNc1cc(Nc2cccn(-c3ccc(C(=O)N4CCC(N5CC(c6ccc7c(c6)n(C)c(=O)n7C6CCC(=O)NC6=O)C5)CC4)cn3)c2=O)nn2c(C(=O)N[C@@H]3C[C@@H]3F)cnc12 (some centres unmarked)
Result block: > 100 nM

***
Query block: Please state recorded DC50 (tested on TYK2 (Homo sapiens, UniProt P29597)) of CNc1cc(-c2cnn(C3CCC(CN4CC5(CCN(c6ccc7c(c6)n(C)c(=O)n7C6CCC(=O)NC6=O)CC5)C4)CC3)c2)nn2c(C(=O)N[C@@H]3C[C@@H]3F)cnc12 (some centres unmarked)
Result block: > 100 nM

====

The following molecules are shown together with reported DC50 values.
# Tested System: TYK2 (Homo sapiens)
# Assay Overview: TYK2 degradation MSD assay in OCI-LY10 cells
# Assay type: cell-based
# Design: endogenous in cells; host or cells: EBV-B cells
# Assay Setup: 4 to 24 hours incubation, read-out: TYK2 MSD DC50 rating in OCI-LY10

Query block: Using the record for CNc1cc(Nc2cccn(-c3ccc(C(=O)NCCOCCOCCOCCOCCOCCOCCc4ccc5c(c4)n(C)c(=O)n5C4CCC(=O)NC4=O)cn3)c2=O)nn2c(C(=O)N[C@@H]3C[C@@H]3F)cnc12 (some centres unmarked) [Example K215] , report its DC50.
Result block: > 100 nM

***
Query block: Using the record for CNc1cc(-c2cnn(C3CN(C(=O)NCCCCc4ccc5c(c4)n(C)c(=O)n5C4CCC(=O)NC4=O)C3)c2)nn2c(C(=O)N[C@@H]3C[C@@H]3F)cnc12 (some centres unmarked) [Example K314] , report its DC50.
Result block: > 100 nM

Query block: Using the record for CNc1cc(Nc2cccc(CN3CCCC4(C3)CN(c3ncc(C#Cc5ccc6c(c5)n(C)c(=O)n6C5CCC(=O)NC5=O)cn3)C4)c2)nn2c(C(=O)NC3CC3)cnc12 (centres unmarked) [Example K608] , report its DC50.
Result block: 1 to 10 nM

Query block: Using the record for Cn1c(=O)n(C2CCC(=O)NC2=O)c2ccc(CCCCNC(=O)c3ccc(-c4ccc5ncc(C(=O)N[C@@H]6C[C@@H]6F)n5n4)cc3)cc21 (some centres unmarked) [Example K324] , report its DC50.
Result block: > 100 nM

Query block: Using the record for CNc1cc(Nc2cccn(-c3ccc(C(=O)N4CCN(CC5CC(c6ccc(-c7ccc8c(c7)n(C)c(=O)n8C7CCC(=O)NC7=O)cc6)C5)CC4)cn3)c2=O)nn2c(C(=O)N[C@@H]3C[C@@H]3F)cnc12 (some centres unmarked) [Example K373] , report its DC50.
Result block: > 100 nM
